Cited source: ChEMBL document CHEMBL1121950

System Tested: Pyruvate kinase PKLR (Rattus norvegicus)
Assay Text: Relative inhibitory potency as ratio of kidney and liver pyruvate kinases
1 means recorded Relative inhibitory potency is 1 or above; -1 means it is below 1.

{"Compound": "CSc1nc(N)c2ncn([C@@H]3O[C@H](COP(=O)(O)OP(=O)(O)O)[C@@H](O)[C@H]3O)c2n1", "System Tested": "Pyruvate kinase PKLR (Rattus norvegicus)", "Class Assignment": 1}
{"Compound": "CC(=O)N(C)CCCCN(C)c1ncnc2c1ncn2[C@@H]1O[C@H](COP(=O)(O)OP(=O)(O)O)[C@@H](O)[C@H]1O", "System Tested": "Pyruvate kinase PKLR (Rattus norvegicus)", "Class Assignment": -1}
{"Compound": "CSc1nc2c(N)ncnc2n1C1O[C@H](COP(=O)(O)OP(=O)(O)O)[C@@H](O)[C@H]1O (some centres undefined)", "System Tested": "Pyruvate kinase PKLR (Rattus norvegicus)", "Class Assignment": 1}
{"Compound": "C[C@@H](OP(=O)(O)OP(=O)(O)O)[C@H]1OC(n2cnc3c(N)ncnc32)[C@H](O)[C@@H]1O (some centres undefined)", "System Tested": "Pyruvate kinase PKLR (Rattus norvegicus)", "Class Assignment": 1}
{"Compound": "CO[C@@H]1[C@H](O)[C@@H](COP(=O)(O)OP(=O)(O)O)O[C@H]1n1cnc2c(N)ncnc21", "System Tested": "Pyruvate kinase PKLR (Rattus norvegicus)", "Class Assignment": 1}
{"Compound": "CCSc1nc2c(N)ncnc2n1C1O[C@H](COP(=O)(O)OP(=O)(O)O)[C@@H](O)[C@H]1O (some centres undefined)", "System Tested": "Pyruvate kinase PKLR (Rattus norvegicus)", "Class Assignment": 1}
{"Compound": "CCNc1nc2c(N)ncnc2n1C1O[C@H](COP(=O)(O)OP(=O)(O)O)[C@@H](O)[C@H]1O (some centres undefined)", "System Tested": "Pyruvate kinase PKLR (Rattus norvegicus)", "Class Assignment": 1}
{"Compound": "C[C@H](OP(=O)(O)OP(=O)(O)O)[C@H]1OC(n2cnc3c(N)ncnc32)[C@H](O)[C@@H]1O (some centres undefined)", "System Tested": "Pyruvate kinase PKLR (Rattus norvegicus)", "Class Assignment": -1}
{"Compound": "CNc1nc2c(N)ncnc2n1C1O[C@H](COP(=O)(O)OP(=O)(O)O)[C@@H](O)[C@H]1O (some centres undefined)", "System Tested": "Pyruvate kinase PKLR (Rattus norvegicus)", "Class Assignment": -1}

====

System Tested: Pyruvate kinase PKM (Rattus norvegicus) (UniProt P11980)
Sequence (P11980 whole entry): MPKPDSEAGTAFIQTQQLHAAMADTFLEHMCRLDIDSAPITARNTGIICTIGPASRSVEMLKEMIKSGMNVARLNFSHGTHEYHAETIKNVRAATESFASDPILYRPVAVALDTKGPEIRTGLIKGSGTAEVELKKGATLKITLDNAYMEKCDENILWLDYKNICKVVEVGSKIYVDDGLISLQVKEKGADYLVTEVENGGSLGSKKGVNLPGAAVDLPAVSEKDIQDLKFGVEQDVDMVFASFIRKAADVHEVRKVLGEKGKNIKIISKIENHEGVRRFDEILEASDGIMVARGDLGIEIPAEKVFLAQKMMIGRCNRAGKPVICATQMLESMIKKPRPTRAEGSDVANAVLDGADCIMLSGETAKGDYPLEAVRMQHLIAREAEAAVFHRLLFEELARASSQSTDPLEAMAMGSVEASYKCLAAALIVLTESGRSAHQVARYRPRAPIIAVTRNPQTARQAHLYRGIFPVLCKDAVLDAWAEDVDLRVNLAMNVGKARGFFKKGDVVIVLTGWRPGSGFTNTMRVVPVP
Assay Text: Relative half maximal velocity of Pyruvate kinase and Phosphoenolpyruvate
# label = T if Relative Vmax >= 60 else F

{"Molecule": "Nc1ncnc2c1ncn2[C@@H]1O[C@H](COP(=O)(O)OP(=O)(O)O)[C@@H](O)[C@H]1O", "Class Assignment": "T"}
{"Molecule": "Nc1ncnc2c1nc(Br)n2[C@@H]1O[C@H](COP(=O)(O)OP(=O)(O)O)[C@@H](O)[C@H]1O", "Class Assignment": "F"}
{"Molecule": "C=CC[C@]1(COP(=O)(O)OP(=O)(O)O)OC(n2cnc3c(N)ncnc32)[C@H](O)[C@@H]1O (stereo partly specified)", "Class Assignment": "F"}
{"Molecule": "CSc1nc(N)c2ncn([C@@H]3O[C@H](COP(=O)(O)OP(=O)(O)O)[C@@H](O)[C@H]3O)c2n1", "Class Assignment": "T"}
{"Molecule": "C[C@H](OP(=O)(O)OP(=O)(O)O)[C@H]1OC(n2cnc3c(N)ncnc32)[C@H](O)[C@@H]1O (stereo partly specified)", "Class Assignment": "F"}
{"Molecule": "CO[C@@H]1[C@H](O)[C@@H](COP(=O)(O)OP(=O)(O)O)O[C@H]1n1cnc2c(N)ncnc21", "Class Assignment": "T"}
{"Molecule": "CCCNc1nc2c(N)ncnc2n1C1O[C@H](COP(=O)(O)OP(=O)(O)O)[C@@H](O)[C@H]1O (stereo partly specified)", "Class Assignment": "F"}
{"Molecule": "CSc1nc2c(N)ncnc2n1C1O[C@H](COP(=O)(O)OP(=O)(O)O)[C@@H](O)[C@H]1O (stereo partly specified)", "Class Assignment": "F"}
{"Molecule": "CC1O[C@@H]2[C@H](O1)[C@@H](COP(=O)(O)OP(=O)(O)O)O[C@H]2n1cnc2c(N)ncnc21 (stereo partly specified)", "Class Assignment": "F"}
{"Molecule": "CNc1nc2c(N)ncnc2n1C1O[C@H](COP(=O)(O)OP(=O)(O)O)[C@@H](O)[C@H]1O (stereo partly specified)", "Class Assignment": "F"}
{"Molecule": "Nc1nc(N)c2ncn(C3O[C@H](COP(=O)(O)OP(=O)(O)O)[C@@H](O)[C@H]3O)c2n1 (stereo partly specified)", "Class Assignment": "T"}
{"Molecule": "CCNc1nc2c(N)ncnc2n1C1O[C@H](COP(=O)(O)OP(=O)(O)O)[C@@H](O)[C@H]1O (stereo partly specified)", "Class Assignment": "F"}
{"Molecule": "CCSc1nc2c(N)ncnc2n1C1O[C@H](COP(=O)(O)OP(=O)(O)O)[C@@H](O)[C@H]1O (stereo partly specified)", "Class Assignment": "F"}
{"Molecule": "CNc1nc(N)c2ncn(C3O[C@H](COP(=O)(O)OP(=O)(O)O)[C@@H](O)[C@H]3O)c2n1 (stereo partly specified)", "Class Assignment": "T"}

====

Species: Rattus norvegicus
Assay Text: Relative half maximal velocity of Pyruvate kinase to Phosphoenolpyruvate was determined

{"Compound": "CNc1nc2c(N)ncnc2n1C1O[C@H](COP(=O)(O)OP(=O)(O)O)[C@@H](O)[C@H]1O (stereo partly drawn)", "Prefix Operator": "=", "Relative Vmax": 49}
{"Compound": "C[C@@H](OP(=O)(O)OP(=O)(O)O)[C@H]1OC(n2cnc3c(N)ncnc32)[C@H](O)[C@@H]1O (stereo partly drawn)", "Prefix Operator": ">", "Relative Vmax": 0}
{"Compound": "CCCNc1nc2c(N)ncnc2n1C1O[C@H](COP(=O)(O)OP(=O)(O)O)[C@@H](O)[C@H]1O (stereo partly drawn)", "Prefix Operator": "=", "Relative Vmax": 0}
{"Compound": "Nc1ncnc2c1ncn2[C@@H]1O[C@H](COP(=O)(O)OP(=O)(O)O)[C@@H](O)[C@H]1O", "Prefix Operator": "=", "Relative Vmax": 100}
{"Compound": "CO[C@H]1[C@@H](O)[C@H](n2cnc3c(N)ncnc32)O[C@@H]1COP(=O)(O)OP(=O)(O)O", "Prefix Operator": ">", "Relative Vmax": 0}
{"Compound": "CNc1nc(N)c2ncn(C3O[C@H](COP(=O)(O)OP(=O)(O)O)[C@@H](O)[C@H]3O)c2n1 (stereo partly drawn)", "Prefix Operator": "=", "Relative Vmax": 85}
{"Compound": "CCSc1nc2c(N)ncnc2n1C1O[C@H](COP(=O)(O)OP(=O)(O)O)[C@@H](O)[C@H]1O (stereo partly drawn)", "Prefix Operator": "=", "Relative Vmax": 0}
{"Compound": "CSc1nc(N)c2ncn([C@@H]3O[C@H](COP(=O)(O)OP(=O)(O)O)[C@@H](O)[C@H]3O)c2n1", "Prefix Operator": "=", "Relative Vmax": 67}

====

System Tested: Pyruvate kinase PKM (Rattus norvegicus)
Assay Text: Ratio of Km(ADP)/Ki or Km for rat muscle pyruvate kinase
Inhibitory potency reference
Metric: Inhibitory potency

{"Molecule": "CNc1nc(N)c2ncn(C3O[C@H](COP(=O)(O)OP(=O)(O)O)[C@@H](O)[C@H]3O)c2n1 (stereo partly drawn)", "Metric": "Inhibitory potency", "Reading": 2.7}
{"Molecule": "CO[C@H]1[C@@H](O)[C@H](n2cnc3c(N)ncnc32)O[C@@H]1COP(=O)(O)OP(=O)(O)O", "Metric": "Inhibitory potency", "Reading": 0.056}
{"Molecule": "CSc1nc2c(N)ncnc2n1C1O[C@H](COP(=O)(O)OP(=O)(O)O)[C@@H](O)[C@H]1O (stereo partly drawn)", "Metric": "Inhibitory potency", "Reading": 0.12}
{"Molecule": "Nc1nc(N)c2ncn(C3O[C@H](COP(=O)(O)OP(=O)(O)O)[C@@H](O)[C@H]3O)c2n1 (stereo partly drawn)", "Metric": "Inhibitory potency", "Reading": 2}
{"Molecule": "C[C@@H](OP(=O)(O)OP(=O)(O)O)[C@H]1OC(n2cnc3c(N)ncnc32)[C@H](O)[C@@H]1O (stereo partly drawn)", "Metric": "Inhibitory potency", "Reading": 0.12}
{"Molecule": "CO[C@@H]1[C@H](O)[C@@H](COP(=O)(O)OP(=O)(O)O)O[C@H]1n1cnc2c(N)ncnc21", "Metric": "Inhibitory potency", "Reading": 0.74}
{"Molecule": "CSc1nc(N)c2ncn([C@@H]3O[C@H](COP(=O)(O)OP(=O)(O)O)[C@@H](O)[C@H]3O)c2n1", "Metric": "Inhibitory potency", "Reading": 4.7}
{"Molecule": "Nc1ncnc2c1nc(Br)n2[C@@H]1O[C@H](COP(=O)(O)OP(=O)(O)O)[C@@H](O)[C@H]1O", "Metric": "Inhibitory potency", "Reading": 0.18}
